Test system: LOX IMVI melanoma
procedure.summary: NCI-60 one-dose screen, 48 h
condition.summary: 10 µM unless noted
This is part of a sample that, as a whole, favours compounds with a hit. Of some 83,000 tested, about 20% had one in any assay. Activity calls are given as the source filed them. How the source made its calls: active means growth percent below 10; inactive means the rest.
Possible outcomes: 1 for active, 0 for inactive

molecule: COC(=O)c1cccc2c1N(C)c1c(cccc1C(=O)OC)CC2
target.or.system: LOX IMVI melanoma
assigned.class: 0
--
molecule: COc1ccc2[nH]c(C(=O)OCc3ccc4c(Cl)cc(Cl)c(O)c4n3)cc2c1
target.or.system: LOX IMVI melanoma
assigned.class: 1
--
molecule: COc1cccc(/C=C2\Oc3cc(OCCCN4CCCC4)ccc3C2=O)c1
target.or.system: LOX IMVI melanoma
assigned.class: 0
--
molecule: CN(C)c1ncnc2c1ccn2C1OC(CO)C(O)C1O (centres undefined)
target.or.system: LOX IMVI melanoma
assigned.class: 1
--
molecule: COc1cccc(CC(C)=C(c2ccc(OCCN3CCCCC3)cc2)c2ccc(OCCN3CCCCC3)cc2)c1
target.or.system: LOX IMVI melanoma
assigned.class: 1
--
molecule: CCN(CC)CCC(CNc1ccnc2cc(Cl)ccc12)c1ccc(Cl)cc1 (centres undefined)
target.or.system: LOX IMVI melanoma
assigned.class: 1
--
molecule: O=C(Nc1ccc2c(c1)OCCO2)C(=O)c1c[nH]c2ccccc12
target.or.system: LOX IMVI melanoma
assigned.class: 0
--
molecule: O=C(O)c1cn(C2CC2)c2cc(N3CCN(C(=O)/C=C/c4ccc(Cl)cc4)CC3)c(F)cc2c1=O
target.or.system: LOX IMVI melanoma
assigned.class: 0
--
molecule: CC(C)(C)n1cc(-c2ccnc(NCCCNS(=O)(=O)c3ccc(Cl)cc3)c2)c(-c2cccc(O)c2)n1
target.or.system: LOX IMVI melanoma
assigned.class: 1
--
molecule: COc1cc(NC(N)=NCCC(C)(C)c2ccc(C(F)(F)F)cc2)ncc1C#N
target.or.system: LOX IMVI melanoma
assigned.class: 0
--
molecule: COc1cc(/C=N\NC(=O)CN2CCN(c3cc4c(cc3F)c(=O)c(C(=O)N/N=C/c3cc(OC)c(OC)c(OC)c3)cn4C3CC3)CC2)cc(OC)c1OC
target.or.system: LOX IMVI melanoma
assigned.class: 1
--
molecule: O=C(Nc1cccc(-n2cc(-c3ccncc3)c(-c3ccc(Cl)c(O)c3)n2)c1)c1ccc(N2CCOCC2)c(C(F)(F)F)c1
target.or.system: LOX IMVI melanoma
assigned.class: 1
--
molecule: Nc1ncnc2c1c(-c1ccc(Oc3ccccc3)cc1)nn2C[C@@H]1SSC[C@@H]1O
target.or.system: LOX IMVI melanoma
assigned.class: 1
--
molecule: COc1ccc2c(c1)C(c1cc(OC)c3c(c1)OCO3)C1=C(COC1=O)N2 (centres undefined)
target.or.system: LOX IMVI melanoma
assigned.class: 0
--
molecule: Cc1cc(C(C)(C)C)ccc1S
target.or.system: LOX IMVI melanoma
assigned.class: 0
--
molecule: c1cc(C2=N[C@@H]3c4ccccc4C[C@@H]3O2)nc(C2=N[C@@H]3c4ccccc4C[C@@H]3O2)c1
target.or.system: LOX IMVI melanoma
assigned.class: 0
--
molecule: O=C1/C(=C/c2ccccc2)CN(C(=O)CCN2CCC(=NO)CC2)C/C1=C\c1ccccc1
target.or.system: LOX IMVI melanoma
assigned.class: 1
--
molecule: COc1ccc(-c2nc(SCCC(C)C)nc(Nc3ccc(F)c(Cl)c3)c2C#N)cc1
target.or.system: LOX IMVI melanoma
assigned.class: 0
--
molecule: COc1ccc(C(=O)n2nc(/C=C/c3ccc(O)c(OC)c3)cc2/C=C/c2ccc(O)c(OC)c2)cc1
target.or.system: LOX IMVI melanoma
assigned.class: 1
--
molecule: COc1ccc(NC(=O)c2cc(OC)c(OC)c(OC)c2)cc1O
target.or.system: LOX IMVI melanoma
assigned.class: 0
--
molecule: CCOC(=O)c1c(NS(=O)(=O)c2ccc(C)cc2)sc2c1CCC1(C2)OCCO1
target.or.system: LOX IMVI melanoma
assigned.class: 0
--
molecule: O=C1/C(=C/c2ccc([N+](=O)[O-])cc2)CN(C(=O)CCN2CCC(=NO)CC2)C/C1=C\c1ccc([N+](=O)[O-])cc1
target.or.system: LOX IMVI melanoma
assigned.class: 1
--
molecule: O=C1Nc2ccc3c(c2/C1=C\c1cc2c(cc1Br)OCO2)OCO3
target.or.system: LOX IMVI melanoma
assigned.class: 1
--
molecule: COc1cc(/C(C#N)=C/c2ccc3c(c2OC)OCO3)cc2c1OCO2
target.or.system: LOX IMVI melanoma
assigned.class: 0
--
molecule: Nc1cccc(-c2nc3sccn3c2-c2ccnc(NCCNS(=O)(=O)c3ccc(C(F)(F)F)cc3)n2)c1
target.or.system: LOX IMVI melanoma
assigned.class: 0
--
molecule: Cc1ccc(C(=O)NCCCNc2nccc(-n3ccc4cccnc43)n2)cc1
target.or.system: LOX IMVI melanoma
assigned.class: 0
--
molecule: CCOC(=O)C1=C(C)NC(C)=C(C(=O)OCC)C1(C)C
target.or.system: LOX IMVI melanoma
assigned.class: 0
--
molecule: COc1ccc(-c2nc3sc(-c4cc(OC)c(OC)c(OC)c4)nn3c2/C=C2/C(=O)Nc3ccc(F)cc32)cc1
target.or.system: LOX IMVI melanoma
assigned.class: 0
--
molecule: Oc1ccccc1/C=N/NC(=S)NC1CC2C=CC1C2 (centres undefined)
target.or.system: LOX IMVI melanoma
assigned.class: 0
--
molecule: CN1CCN(Cc2ccc(NC(=O)c3cncc(C#Cc4cnc(N)c5ccncc45)c3)cc2C(F)(F)F)CC1
target.or.system: LOX IMVI melanoma
assigned.class: 1
--
molecule: COc1ccc(NC(=O)CSc2nc(-c3ccc(OC)c(OC)c3)cc(-c3cc(OC)c(OC)c(OC)c3)n2)cc1
target.or.system: LOX IMVI melanoma
assigned.class: 0
--
molecule: O=C(Nc1cccc(-n2cc(-c3ccncc3)c(-c3ccc(Cl)c(O)c3)n2)c1)Nc1ccc(Cl)c(C(F)(F)F)c1
target.or.system: LOX IMVI melanoma
assigned.class: 1
--
molecule: C/C=C(\C)C(C(=O)NC1CCCCC1)N(C(=O)C1CCc2cc(F)ccc2O1)c1ccc(Cl)cc1 (centres undefined)
target.or.system: LOX IMVI melanoma
assigned.class: 0
--
molecule: Nc1cc2c(cc1C(=O)c1cccc(F)c1)OCCO2
target.or.system: LOX IMVI melanoma
assigned.class: 0
--
molecule: Nc1cccc(Cl)c1N
target.or.system: LOX IMVI melanoma
assigned.class: 0
--
molecule: Nc1nc(Nc2cc(Cl)cc(Cl)c2)nn1S(=O)(=O)c1ccc2ccccc2c1
target.or.system: LOX IMVI melanoma
assigned.class: 0
--
molecule: CC(=O)Oc1csc(N(C(C)=O)c2cc(C(=O)O)cc(C(=O)O)c2)n1
target.or.system: LOX IMVI melanoma
assigned.class: 0
--
molecule: O=S(=O)(NCCNc1nccc(-c2c(-c3cccc(O)c3)nc3sccn23)n1)c1ccc(F)cc1
target.or.system: LOX IMVI melanoma
assigned.class: 0
--
molecule: COc1ccc2c(c1)[nH]c(=O)c1c3cccc(F)c3cn21
target.or.system: LOX IMVI melanoma
assigned.class: 0
